Recorded values, source patent US8975415B2.

# TARGET DESC: BACE1 (Homo sapiens (Human))
# EXPERIMENT: Measurement of BACE1 inhibition by fluorescence resonance energy transfer (FRET), MCA substrate
# RUN PARAMETERS: read-out: Test Example 1 BACE1 MCA Ki; FRET, MCA substrate
READOUT KIND: pKi
# pKi = -log10(concentration in molar units)

For orientation, consider the following solved cases.
NC1=NC2(CO1)c1cc(-c3cncnc3)ccc1OC(Cc1ccccc1)C21COC1 (centres unmarked) [RP 200] | 7.04
CC1(C)Oc2ccc(-c3cccc(Cl)c3)cc2C2(COC(N)=N2)C12COC2 (centres unmarked) | 6.67
CC#Cc1cncc(-c2ccc3c(c2)C2(COC(N)=N2)C2(COC2)C(CCC)O3)c1 (centres unmarked) | 7.06

Recorded pKi of NC1=NC2(CO1)c1cc(NC(=O)c3ncc(Br)cn3)ccc1OCC21CC1 (centres unmarked) , please.
6.21

Recorded pKi of CC1(C)Oc2ccc(NC(=O)c3ccc(F)cn3)cc2C2(COC(N)=N2)C12COC2 (centres unmarked) , please.
6.93

Recorded pKi of CC#Cc1cncc(-c2ccc3c(c2)C2(COC(N)=N2)C2(COC2)C(CCC(F)(F)F)O3)c1 (centres unmarked) , please.
6.06

====

As shown below, each of these molecules has a reported IC50 value.
# TARGET DESC: BACE1 (Homo sapiens (Human), UniProt P56817)
# Sequence (P56817 75-416): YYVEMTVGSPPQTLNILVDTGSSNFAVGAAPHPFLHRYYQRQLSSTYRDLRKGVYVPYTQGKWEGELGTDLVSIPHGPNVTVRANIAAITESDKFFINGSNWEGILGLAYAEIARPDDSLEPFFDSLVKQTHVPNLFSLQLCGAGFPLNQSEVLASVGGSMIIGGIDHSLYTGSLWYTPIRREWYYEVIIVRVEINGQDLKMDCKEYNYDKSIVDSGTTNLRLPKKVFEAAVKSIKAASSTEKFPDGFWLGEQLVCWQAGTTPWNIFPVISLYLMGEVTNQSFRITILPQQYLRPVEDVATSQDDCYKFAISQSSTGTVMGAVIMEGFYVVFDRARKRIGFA
# EXPERIMENT: Measurement of BACE1 inhibition by fluorescence resonance energy transfer (FRET), MCA substrate
# RUN PARAMETERS: read-out: Test Example 1 IC50; FRET, MCA-SEVNLDAEFK(DNP)-NH2 substrate, pH 4.4

NC1=NC2(c3cc(-c4cncnc4)ccc3OCC23CC3)C(F)(F)CO1 (stereo not shown) | 4.91 µM
COc1cccc(-c2ccc3c(c2)C2(COC(N)=N2)C2(COC2)C2(CCC2)O3)c1 (stereo not shown) | 0.696 µM
NC1=NC2(CO1)c1cc(-c3cncnc3)ccc1OCC21CCC1 (stereo not shown) | 7.65 µM
NC1=NC2(CO1)c1cc(-c3cncnc3)ccc1OC(C1CC1)C21COC1 (stereo not shown) [RP 89] | 4.67 µM
CC1(C)Oc2ccc(Br)cc2C2(CSC(N)=N2)C12COC2 (stereo not shown) | 16.1 µM
CCC1Oc2ccc(-c3cncnc3)cc2C2(COC(N)=N2)C12COC2 (stereo not shown) [RP 84] | 0.735 µM

Lab note: next molecule to report on.
Recorded IC50 of NC1=NC2(CO1)c1cc(C3=CCCCC3)ccc1OC1(CCC1)C21COC1 (stereo not shown) , please.
3.27 µM

====

As shown below, each of these compounds has a reported IC50 value.
# TARGET DESC: BACE1 (Homo sapiens (Human), UniProt P56817)
# EXPERIMENT: Measurement of BACE1 inhibition by fluorescence resonance energy transfer (FRET), MCA substrate
# RUN PARAMETERS: read-out: Test Example 1 IC50; FRET, MCA-SEVNLDAEFK(DNP)-NH2 substrate, pH 4.4
# output: bare number, implied unit µM

NC1=NC2(CO1)c1cc(-c3cncnc3)ccc1OC(C1CC1)C21COC1 (centres unmarked) [RP 88] | 2.51
CCC1CC=C(c2ccc3c(c2)C2(COC(N)=N2)C2(COC2)C(C)(C)O3)CC1 (centres unmarked) | 2.24
NC1=NC2(CO1)c1cc(C3=CCOCC3)ccc1OCC21COC1 (centres unmarked) | 37.9
COCC#Cc1cncc(-c2ccc3c(c2)C2(COC(N)=N2)C2(COC2)CO3)c1 (centres unmarked) | 2.31

Recorded IC50 of COc1ccc(F)c(-c2ccc3c(c2)C2(COC(N)=N2)C2(COC2)CO3)c1 (centres unmarked) , please.
1.52

Recorded IC50 of NC1=NC2(CO1)c1cc(Br)ccc1OC(C1CC1)C21COC1 (single isomer, unassigned) [RP 12b] , please.
81.3

Recorded IC50 of CC1(C)Oc2ccc(-c3cccnc3F)cc2C2(COC(N)=N2)C12COC2 (centres unmarked) , please.
0.348

Recorded IC50 of CC1(C)Oc2ccc(Br)cc2C2(COC(N)=N2)C12COC2 (centres unmarked) , please.
11.7
